Target: PRMT5/MEP50 protein complex (Homo sapiens (Human), UniProt O14744)
Sequence (O14744 other isoform, or with tags, fused parts or gaps): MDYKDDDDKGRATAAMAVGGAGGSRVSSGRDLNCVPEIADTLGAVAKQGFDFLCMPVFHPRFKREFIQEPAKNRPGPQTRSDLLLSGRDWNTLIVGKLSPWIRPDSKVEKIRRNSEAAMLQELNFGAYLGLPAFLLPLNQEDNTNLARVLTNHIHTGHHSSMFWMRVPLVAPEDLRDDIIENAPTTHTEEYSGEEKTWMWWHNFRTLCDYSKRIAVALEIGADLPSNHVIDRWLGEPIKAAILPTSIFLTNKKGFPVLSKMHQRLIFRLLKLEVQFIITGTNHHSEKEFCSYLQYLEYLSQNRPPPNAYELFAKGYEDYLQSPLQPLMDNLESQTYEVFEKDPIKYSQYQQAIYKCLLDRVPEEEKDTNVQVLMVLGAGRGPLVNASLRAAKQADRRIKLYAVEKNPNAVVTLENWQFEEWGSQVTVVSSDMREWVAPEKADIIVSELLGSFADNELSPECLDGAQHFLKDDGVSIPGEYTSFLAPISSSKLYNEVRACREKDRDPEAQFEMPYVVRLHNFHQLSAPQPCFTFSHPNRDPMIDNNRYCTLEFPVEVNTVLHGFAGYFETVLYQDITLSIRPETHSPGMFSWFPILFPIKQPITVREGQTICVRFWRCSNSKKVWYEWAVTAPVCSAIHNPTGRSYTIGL
Sequence (Q9BQA1 whole entry partner): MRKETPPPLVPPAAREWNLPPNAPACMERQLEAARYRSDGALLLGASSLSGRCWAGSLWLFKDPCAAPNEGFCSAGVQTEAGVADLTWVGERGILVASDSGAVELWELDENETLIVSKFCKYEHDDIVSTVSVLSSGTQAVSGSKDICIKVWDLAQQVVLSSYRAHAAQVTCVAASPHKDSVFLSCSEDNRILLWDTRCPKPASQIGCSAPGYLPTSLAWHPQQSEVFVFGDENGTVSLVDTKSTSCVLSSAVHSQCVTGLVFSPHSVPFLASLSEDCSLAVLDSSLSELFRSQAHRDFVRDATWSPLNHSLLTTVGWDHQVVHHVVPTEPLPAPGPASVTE
Test: PRMT5 biochemical assay (3H-SAM methylation of H4(1-21) peptide, filter plate scintillation)
Conditions: 10 nM PRMT5/MEP50 complex, 200 nM H4(1-21) peptide, 1 uM SAM, 25 minute incubation at room temperature
observed.property: IC50 (nM)
Report as a plain number; the unit nM is understood.

Answered cases to consult:
compound	target.system	unit	IC50
Cc1ncnc2c1ccn2[C@@H]1C[C@H](Oc2cc(-c3cn[nH]c3)cc3c2CNCC3)[C@@H](O)[C@H]1O [Example 165]	PRMT5/MEP50 protein complex (Homo sapiens (Human), UniProt O14744)	nM	2
Cc1ncnc2c1ccn2[C@@H]1C[C@H](Oc2cc(F)cc3c2CNCC3)[C@@H](O)[C@H]1O [Example 85]	PRMT5/MEP50 protein complex (Homo sapiens (Human), UniProt O14744)	nM	2

Dear colleague, I am looking for the recorded IC50 of the following compound: Cc1ncnc2c1ccn2[C@@H]1C[C@H](Oc2cccc3c2[C@@H](N)CC3)[C@@H](O)[C@H]1O [Example 141]
3930

Dear colleague, I am looking for the recorded IC50 of the following compound: O[C@@H]1[C@H](O)[C@@H](Oc2cccc3c2CNCC3)C[C@H]1n1ccc2cncnc21 [Example 118]
2

Dear colleague, I am looking for the recorded IC50 of the following compound: Cc1ncnc2c1ccn2[C@@H]1C[C@H]([C@@](C)(O)c2ccc(F)cc2)[C@@H](O)[C@H]1O [Example 20]
17100

Dear colleague, I am looking for the recorded IC50 of the following compound: Cc1ncnc2c1ccn2[C@@H]1C[C@H](Oc2cccc3c2[C@H](N)CC3)[C@@H](O)[C@H]1O [Example 142]
11

Dear colleague, I am looking for the recorded IC50 of the following compound: Cc1ncnc2c1ccn2[C@@H]1C[C@H](Oc2cccc3c2CN[C@H](C)CO3)[C@@H](O)[C@H]1O [Example 208]
8

###

Molecular target: PRMT5/MEP50 protein complex (Homo sapiens (Human))
Assay: PRMT5 biochemical assay (3H-SAM methylation of H4(1-21) peptide, filter plate scintillation)
Settings: 10 nM PRMT5/MEP50 complex, 200 nM H4(1-21) peptide, 1 uM SAM, 25 minute incubation at room temperature
Structures can show the parent of a compound that is named as a salt.
Examples of compounds with documented IC50 follow.
Report as a plain number; the unit nM is understood.

Answered cases to consult:
compound	IC50 [nM]
Cc1ncnc2c1ccn2[C@@H]1C[C@H](Oc2ccc(F)c3c2CNCC3C)[C@@H](O)[C@H]1O (single isomer, unassigned) [Example 182, hydrochloride]	2
Cc1ncnc2c1ccn2[C@@H]1C[C@H](Oc2ccc(F)cc2O)[C@@H](O)[C@H]1O [Example 136]	11100

Dear colleague, I am looking for the recorded IC50 of the following compound: Cc1ncnc2c1ccn2[C@@H]1C[C@H]([C@@H](O)c2ccc(Cl)cc2)[C@@H](O)[C@H]1O [Example 12]
478

###

Target: PRMT5/MEP50 protein complex (Homo sapiens (Human))
Assay: PRMT5 biochemical assay (3H-SAM methylation of H4(1-21) peptide, filter plate scintillation)
Conditions: 10 nM PRMT5/MEP50 complex, 200 nM H4(1-21) peptide, 1 uM SAM, 25 minute incubation at room temperature
Where a name gives a salt, the structure may show the parent alone.
Examples of compounds with documented IC50 follow.
Report as a plain number; the unit nM is understood.

Answered cases to consult:
compound	observed.property	assay.value
Cc1ncnc2c1ccn2[C@@H]1C[C@H](Oc2ccc(F)cc2CN(C)C)[C@@H](O)[C@H]1O	IC50	69
Cc1ncnc2c1ccn2[C@@H]1C[C@H]([C@@H](O)c2ccc(F)c(F)c2)[C@@H](O)[C@H]1O	IC50	681
Cc1ncnc2c1ccn2[C@@H]1C[C@H](Oc2cc(Br)cc3c2CNCC3)[C@@H](O)[C@H]1O	IC50	1
Cc1ncnc2c1ccn2[C@@H]1C[C@H](Oc2ccc(I)c3c2CNCC3)[C@@H](O)[C@H]1O	IC50	11
Cc1cc2c(c(O[C@H]3C[C@@H](n4ccc5c(C)ncnc54)[C@H](O)[C@@H]3O)n1)CNCC2	IC50	1
Cc1ncnc2c1ccn2C1C[C@H](Oc2cccc3c2CNC3)[C@@H](O)[C@H]1O (stereo partly shown)	IC50	83
Cc1cc2c(c(O[C@H]3C[C@@H](n4cc(Cl)c5c(N)ncnc54)[C@H](O)[C@@H]3O)c1)CNCC2	IC50	1
Cc1ncnc2c1ccn2[C@@H]1C[C@H]([C@H](O)c2cc(F)c(F)c(F)c2)[C@@H](O)[C@H]1O	IC50	16
Cc1ncnc2c1ccn2[C@@H]1C[C@H](Oc2ccc(F)c3c2CNCC3C)[C@@H](O)[C@H]1O (single isomer, unassigned) [Example 183, hydrochloride]	IC50	1
Cc1ncnc2c1ccn2[C@@H]1C[C@H](Oc2cc(-c3cnoc3)cc3c2CNCC3)[C@@H](O)[C@H]1O	IC50	1

Dear colleague, I am looking for the recorded IC50 of the following compound: `Cc1cc2c(c(O[C@H]3C[C@@H](n4ccc5c(C)ncnc54)[C@H](O)[C@@H]3O)c1)CNCC2`
1

Dear colleague, I am looking for the recorded IC50 of the following compound: `Cc1ncnc2c1ccn2[C@@H]1C[C@H](Oc2ccc(F)c3c2CNCC3)[C@@H](O)[C@H]1O`
2

Dear colleague, I am looking for the recorded IC50 of the following compound: `Nc1ncnc2c1c(F)cn2[C@@H]1C[C@H](Oc2cccc3ccncc23)[C@@H](O)[C@H]1O`
42

Dear colleague, I am looking for the recorded IC50 of the following compound: `Cc1ncnc2c1ccn2[C@@H]1C[C@H](Oc2ccc(F)cc2)[C@@H](O)[C@H]1O`
6880

Dear colleague, I am looking for the recorded IC50 of the following compound: `Cc1cc(O[C@H]2C[C@@H](n3cc(F)c4c(N)ncnc43)[C@H](O)[C@@H]2O)c2c(c1F)CCNC2`
1

Dear colleague, I am looking for the recorded IC50 of the following compound: `Cc1ncnc(N(C)[C@@H]2C[C@H]([C@@H](O)c3ccc(F)c(F)c3)[C@@H](O)[C@H]2O)n1`
29500

Dear colleague, I am looking for the recorded IC50 of the following compound: Cc1ncnc2c1ccn2[C@@H]1C[C@H](Oc2cccc3c2CC(N)CO3)[C@@H](O)[C@H]1O (single isomer, unassigned) [Example 188]
4

Dear colleague, I am looking for the recorded IC50 of the following compound: Cc1ncnc2c1ccn2[C@@H]1C[C@H](Oc2cccc3c2CNC(C)C3)[C@@H](O)[C@H]1O (single isomer, unassigned) [Example 184]
1

Dear colleague, I am looking for the recorded IC50 of the following compound: `Nc1ncnc2c1c(F)cn2[C@@H]1C[C@H](Oc2cc(C(F)F)c(F)c3c2CNCC3)[C@@H](O)[C@H]1O`
1

Dear colleague, I am looking for the recorded IC50 of the following compound: `Cc1ncnc2c1ccn2[C@@H]1C[C@H](Oc2cncc3c2CNCC3)[C@@H](O)[C@H]1O`
6

Dear colleague, I am looking for the recorded IC50 of the following compound: Cc1ncnc2c1ccn2[C@@H]1C[C@H](Oc2cccc3c2C(N)CCC3)[C@@H](O)[C@H]1O (single isomer, unassigned) [Example 187]
971

Dear colleague, I am looking for the recorded IC50 of the following compound: `CN(c1ccncn1)[C@@H]1C[C@H]([C@H](O)c2ccc(F)c(F)c2)[C@@H](O)[C@H]1O`
466

Dear colleague, I am looking for the recorded IC50 of the following compound: `Nc1ncnc2c1c(F)cn2[C@@H]1C[C@H](Oc2cc(C(F)F)cc3c2CNCC3)[C@@H](O)[C@H]1O`
1

Dear colleague, I am looking for the recorded IC50 of the following compound: `N#Cc1cc2c(c(O[C@H]3C[C@@H](n4cc(Br)c5c(N)ncnc54)[C@H](O)[C@@H]3O)c1)CNCC2`
1

Dear colleague, I am looking for the recorded IC50 of the following compound: `Cc1ncnc2c1ccn2[C@@H]1C[C@H](Oc2cccc3c2CNCC3)[C@@H](O)[C@H]1O`
1

Dear colleague, I am looking for the recorded IC50 of the following compound: `Cc1ncnc2c1ccn2[C@@H]1C[C@H](Cc2ccc(Cl)cc2CN)[C@@H](O)[C@H]1O`
2

The measurements presented in this section are drawn from patent US10709709B2.
